Each record here notes measured pEC50.
# target: xanthine oxidase (Homo sapiens)
# Sequence (P47989 whole entry, species assumed): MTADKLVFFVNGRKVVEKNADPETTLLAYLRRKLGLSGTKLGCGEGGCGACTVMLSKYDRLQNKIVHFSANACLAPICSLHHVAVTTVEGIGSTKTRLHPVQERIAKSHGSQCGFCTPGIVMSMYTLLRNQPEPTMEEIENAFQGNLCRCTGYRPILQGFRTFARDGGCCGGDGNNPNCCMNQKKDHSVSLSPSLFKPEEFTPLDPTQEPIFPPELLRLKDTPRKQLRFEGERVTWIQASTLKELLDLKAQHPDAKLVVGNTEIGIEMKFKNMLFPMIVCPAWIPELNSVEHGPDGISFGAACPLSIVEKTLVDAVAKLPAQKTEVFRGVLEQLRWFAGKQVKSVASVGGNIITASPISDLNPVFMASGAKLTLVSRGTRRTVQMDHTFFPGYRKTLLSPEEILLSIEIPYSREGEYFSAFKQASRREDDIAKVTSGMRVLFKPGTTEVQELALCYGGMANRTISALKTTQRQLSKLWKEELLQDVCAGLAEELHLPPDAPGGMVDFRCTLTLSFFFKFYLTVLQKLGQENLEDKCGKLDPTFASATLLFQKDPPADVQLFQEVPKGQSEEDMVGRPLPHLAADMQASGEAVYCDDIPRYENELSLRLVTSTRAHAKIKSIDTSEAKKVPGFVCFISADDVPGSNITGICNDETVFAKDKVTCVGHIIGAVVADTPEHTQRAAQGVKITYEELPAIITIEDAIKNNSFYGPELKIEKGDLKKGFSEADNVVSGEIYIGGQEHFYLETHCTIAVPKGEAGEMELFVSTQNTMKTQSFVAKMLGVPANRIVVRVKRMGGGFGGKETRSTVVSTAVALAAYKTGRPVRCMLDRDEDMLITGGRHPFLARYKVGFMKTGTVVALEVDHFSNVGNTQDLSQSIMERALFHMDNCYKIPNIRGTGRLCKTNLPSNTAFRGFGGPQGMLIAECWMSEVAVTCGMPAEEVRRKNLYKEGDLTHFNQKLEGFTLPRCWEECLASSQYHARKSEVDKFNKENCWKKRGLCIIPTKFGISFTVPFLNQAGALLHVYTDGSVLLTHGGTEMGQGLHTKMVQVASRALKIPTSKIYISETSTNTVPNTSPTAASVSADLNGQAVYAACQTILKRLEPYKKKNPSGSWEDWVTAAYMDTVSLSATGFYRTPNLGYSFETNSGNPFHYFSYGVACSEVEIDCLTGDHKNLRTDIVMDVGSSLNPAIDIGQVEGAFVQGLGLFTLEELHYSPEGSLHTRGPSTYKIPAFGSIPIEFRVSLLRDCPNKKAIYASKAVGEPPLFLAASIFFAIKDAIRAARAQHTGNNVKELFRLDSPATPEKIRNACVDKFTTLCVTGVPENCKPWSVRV
# procedure_summary: Xanthine oxidase inhibition assay (uric acid formation, OD 295 nm)
# protocol_conditions: isolated major compounds; read-out: EC50 of inhibitory activity on xanthine oxidase
// pEC50: -log10(molar conc.)

compound | pEC50
O=C(/C=C/c1ccc(O)c(O)c1)c1ccc(O)c(O)c1O [okanin, 3,4,2′,3′,4′-pentahydroxy trans-chalcone] | 7.13

Give measured pEC50 for O=c1c(O)c(-c2ccc(O)c(O)c2)oc2c(O)c(O)ccc12 [melanoxetin, 3,7,8,3′,4′-pentahydroxyflavone] (xanthine oxidase (Homo sapiens)).
6.56
